target: Ketohexokinase (Homo sapiens, UniProt P50053); test: Inhibition of human KHK-C preincubated for 15 mins followed by substrate addition and measured after 20 mins in presence of ATP by Rapidfire MS analysis
Sequence (P50053 whole entry): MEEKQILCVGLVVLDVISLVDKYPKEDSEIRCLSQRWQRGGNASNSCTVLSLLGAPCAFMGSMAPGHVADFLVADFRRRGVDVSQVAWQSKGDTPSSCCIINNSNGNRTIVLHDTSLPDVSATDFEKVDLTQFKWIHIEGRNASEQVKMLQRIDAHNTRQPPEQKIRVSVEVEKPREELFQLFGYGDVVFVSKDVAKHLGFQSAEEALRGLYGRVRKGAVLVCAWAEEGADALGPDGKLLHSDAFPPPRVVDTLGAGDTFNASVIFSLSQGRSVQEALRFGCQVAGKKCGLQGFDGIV
Recorded Endpoint: pIC50
pIC50 is a log-scale quantity: -log10 of the concentration expressed in molar.

Record C[C@H]1CCN1c1nc(-c2cnn(C3CCN(C)CC3)c2)cc(C(F)(F)F)c1C#N , field pIC50: 8.22

Per the records, this molecule ( C[C@H]1CCN1c1nc(-c2cnn(C3CNC3)c2)cc(C(F)(F)F)n1 ) has pIC50 equal to 8.30

pIC50 for C[C@H]1CCN1c1nc(-c2cnn(C3CCNCC3)c2)cc(C(F)(F)F)n1 is 7.82

Record C[C@H]1CCN1c1nc(-c2cnn(C3CN(C)C3)c2)cc(C(F)(F)F)n1 , field pIC50: 8.40

The recorded pIC50 for entry C[C@H]1CCN1c1nc(-c2cnn(C3CCNCC3)c2)cc(C(F)(F)F)c1C#N equals 8.40

Data point: C[C@H]1CCN1c1nc(-c2cnn(CCN(C)C)c2)cc(C(F)(F)F)c1C#N ; pIC50 = 7.55

Recorded result, C[C@H]1CCN1c1nc(-c2cnn(C3CCN(C(=O)CN)CC3)c2)cc(C(F)(F)F)c1C#N , pIC50: 8.22

Entry C[C@H]1CCN1c1nc(-c2cnn(CC(=O)N3CCN(C)CC3)c2)cc(C(F)(F)F)c1C#N ; pIC50 = 8.22

pIC50 reported for this molecule C[C@H]1CCN1c1nc(-c2cnn(C3CNC3)c2)cc(C(F)(F)F)c1C#N : 7.82
